Measurement Target: MMP13 (Homo sapiens)
Construct: purchased Enzo Life Sciences, Inc. BML-AK412
Assay Procedure: MMP-13 colorimetric inhibition assay (Enzo kit BML-AK412)
Assay type: biochemical
Study Conditions: thiopeptide substrate, absorbance 415 nm; read-out: MMP 13 IC50 class
Readout Name: IC50

[
  {
    "Mol Smiles": "COCCOC(=O)N1[C@@H]2CC[C@H]1[C@H](C(=O)NO)N(S(=O)(=O)c1ccc(Oc3ccc(C)nc3)nc1)C2",
    "Readout Name": "IC50",
    "Result": "50 to 1000 nM"
  },
  {
    "Mol Smiles": "COCCOC(=O)N1[C@@H]2CC[C@H]1[C@H](C(=O)NO)N(S(=O)(=O)c1ccc(Oc3nc4ccccc4o3)nc1)C2",
    "Readout Name": "IC50",
    "Result": "> 10000 nM"
  },
  {
    "Mol Smiles": "COCCOC(=O)N1[C@@H]2CC[C@H]1[C@H](C(=O)NO)N(S(=O)(=O)c1ccc(Oc3ccc(OC)cc3)nc1)C2",
    "Readout Name": "IC50",
    "Result": "< 50 nM"
  },
  {
    "Mol Smiles": "COCCOC(=O)N1[C@@H]2CC[C@H]1[C@H](C(=O)NO)N(S(=O)(=O)c1ccc(Oc3ccc(OC(F)(F)F)cc3)nc1)C2",
    "Readout Name": "IC50",
    "Result": "< 50 nM"
  },
  {
    "Mol Smiles": "COCCOC(=O)N1[C@@H]2CC[C@H]1[C@H](C(=O)NO)N(S(=O)(=O)c1ccc(Oc3ccc(C(C)(C)O)cc3)nc1)C2",
    "Readout Name": "IC50",
    "Result": "50 to 1000 nM"
  },
  {
    "Mol Smiles": "CCOC(=O)N1[C@@H]2CC[C@H]1[C@H](C(=O)NO)N(S(=O)(=O)N1CCC(Oc3ccnc(C(F)(F)F)c3)CC1)C2",
    "Readout Name": "IC50",
    "Result": "50 to 1000 nM"
  },
  {
    "Mol Smiles": "CC(C)(C)C(=O)N1[C@@H]2CC[C@H]1[C@H](C(=O)NO)N(S(=O)(=O)c1ccc(Oc3ccc(OC(F)(F)F)cc3)nc1)C2",
    "Readout Name": "IC50",
    "Result": "< 50 nM"
  },
  {
    "Mol Smiles": "COCCOC(=O)N1[C@@H]2CC[C@H]1[C@H](C(=O)NO)N(S(=O)(=O)c1ccc(Oc3nc4ccccc4o3)c(F)c1)C2",
    "Readout Name": "IC50",
    "Result": "50 to 1000 nM"
  },
  {
    "Mol Smiles": "COCCOC(=O)N1[C@@H]2CC[C@H]1[C@H](C(=O)NO)N(S(=O)(=O)c1ccc(Oc3cnn(-c4ccccc4)c3)nc1)C2",
    "Readout Name": "IC50",
    "Result": "< 50 nM"
  },
  {
    "Mol Smiles": "COCCOC(=O)N1[C@@H]2CC[C@H]1[C@H](C(=O)NO)N(S(=O)(=O)c1ccc(Oc3ccc(OCF)cc3)nc1)C2",
    "Readout Name": "IC50",
    "Result": "< 50 nM"
  },
  {
    "Mol Smiles": "COCCOC(=O)N1[C@@H]2CC[C@H]1[C@H](C(=O)NO)N(S(=O)(=O)c1ccc(Oc3ccc(OC(C)C)cc3)nc1)C2",
    "Readout Name": "IC50",
    "Result": "< 50 nM"
  },
  {
    "Mol Smiles": "COCCOC(=O)N1[C@@H]2CC[C@H]1[C@H](C(=O)NO)N(S(=O)(=O)c1cnc(Oc3ccc(F)cc3)cn1)C2",
    "Readout Name": "IC50",
    "Result": "1000 to 10000 nM"
  },
  {
    "Mol Smiles": "CC(=O)N1[C@@H]2CC[C@H]1[C@H](C(=O)NO)N(S(=O)(=O)c1ccc(Oc3ccc(OC(C)C)cc3)nc1)C2",
    "Readout Name": "IC50",
    "Result": "< 50 nM"
  },
  {
    "Mol Smiles": "COCCOC(=O)N1[C@@H]2CC[C@H]1[C@H](C(=O)NO)N(S(=O)(=O)c1ccc(Oc3cnc(OC)nc3)nc1)C2",
    "Readout Name": "IC50",
    "Result": "50 to 1000 nM"
  },
  {
    "Mol Smiles": "COCCOC(=O)N1[C@@H]2CC[C@H]1[C@H](C(=O)NO)N(S(=O)(=O)c1ccc(Oc3ccc(Cl)cc3F)nc1)C2",
    "Readout Name": "IC50",
    "Result": "< 50 nM"
  },
  {
    "Mol Smiles": "COCCOC(=O)N1[C@@H]2CC[C@H]1[C@H](C(=O)NO)N(S(=O)(=O)c1ccc(Oc3ccc(OC(C)(C)C)cc3)nc1)C2",
    "Readout Name": "IC50",
    "Result": "< 50 nM"
  },
  {
    "Mol Smiles": "COCCOC(=O)N1[C@@H]2CC[C@H]1[C@H](C(=O)NO)N(S(=O)(=O)c1ccc(Oc3ccc(F)cn3)cc1)C2",
    "Readout Name": "IC50",
    "Result": "< 50 nM"
  },
  {
    "Mol Smiles": "CC(=O)N1[C@@H]2CC[C@H]1[C@H](C(=O)NO)N(S(=O)(=O)c1ccc(Oc3ccc(F)cc3)nc1)C2",
    "Readout Name": "IC50",
    "Result": "< 50 nM"
  },
  {
    "Mol Smiles": "COc1ccc(Oc2ccc(S(=O)(=O)N3C[C@H]4CC[C@@H]([C@@H]3C(=O)NO)N4C(C)=O)cn2)cc1F",
    "Readout Name": "IC50",
    "Result": "< 50 nM"
  },
  {
    "Mol Smiles": "COCCOC(=O)N1[C@@H]2CC[C@H]1[C@H](C(=O)NO)N(S(=O)(=O)c1ccc(Oc3ccc(OC)nc3)nc1)C2",
    "Readout Name": "IC50",
    "Result": "< 50 nM"
  },
  {
    "Mol Smiles": "COCCOC(=O)N1[C@@H]2CC[C@H]1[C@H](C(=O)NO)N(S(=O)(=O)c1ccc(OC3CCOCC3)nc1)C2",
    "Readout Name": "IC50",
    "Result": "< 50 nM"
  },
  {
    "Mol Smiles": "COCCOC(=O)N1[C@@H]2CC[C@H]1[C@H](C(=O)NO)N(S(=O)(=O)c1ccc(Oc3ccc(Cl)cc3)nc1)C2",
    "Readout Name": "IC50",
    "Result": "< 50 nM"
  },
  {
    "Mol Smiles": "CN1CCN(C(=O)N2[C@@H]3CC[C@H]2[C@H](C(=O)NO)N(S(=O)(=O)c2ccc(Oc4ccc(F)cc4)nc2)C3)CC1",
    "Readout Name": "IC50",
    "Result": "50 to 1000 nM"
  },
  {
    "Mol Smiles": "COCCOC(=O)N1[C@@H]2CC[C@H]1[C@H](C(=O)NO)N(S(=O)(=O)c1ccc(OC3CCCCC3)nc1)C2",
    "Readout Name": "IC50",
    "Result": "< 50 nM"
  },
  {
    "Mol Smiles": "COCCOC(=O)N1[C@@H]2CC[C@H]1[C@H](C(=O)NO)N(S(=O)(=O)c1ccc(Oc3ccc(F)c(F)c3)nc1)C2",
    "Readout Name": "IC50",
    "Result": "< 50 nM"
  },
  {
    "Mol Smiles": "COCCOC(=O)N1[C@@H]2CC[C@H]1[C@H](C(=O)NO)N(S(=O)(=O)c1ccc(Oc3ccc(OCC(F)(F)F)cc3)nc1)C2",
    "Readout Name": "IC50",
    "Result": "< 50 nM"
  }
]
